We begin with a simple list: items and their reported PBM binding z-score.
- System: LXRb homodimer (NR concentration 270 nM)
- PROTOCOL_TEXT: PBM binding z-score (relative to random genomic background probes); higher = stronger binding; sequences stand for … in GC…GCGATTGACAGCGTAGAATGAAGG

{"CONSTRUCT_SEQUENCE": "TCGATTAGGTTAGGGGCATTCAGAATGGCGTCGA", "TARGET_OR_SYSTEM": "LXRb homodimer (NR concentration 270 nM)", "PBM binding z-score": 0.612}
{"CONSTRUCT_SEQUENCE": "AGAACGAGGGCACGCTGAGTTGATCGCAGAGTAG", "TARGET_OR_SYSTEM": "LXRb homodimer (NR concentration 270 nM)", "PBM binding z-score": -0.872}
{"CONSTRUCT_SEQUENCE": "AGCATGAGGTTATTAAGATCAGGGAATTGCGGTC", "TARGET_OR_SYSTEM": "LXRb homodimer (NR concentration 270 nM)", "PBM binding z-score": -0.175}
{"CONSTRUCT_SEQUENCE": "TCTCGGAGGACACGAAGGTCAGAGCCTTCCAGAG", "TARGET_OR_SYSTEM": "LXRb homodimer (NR concentration 270 nM)", "PBM binding z-score": -0.905}
{"CONSTRUCT_SEQUENCE": "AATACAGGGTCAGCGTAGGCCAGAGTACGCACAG", "TARGET_OR_SYSTEM": "LXRb homodimer (NR concentration 270 nM)", "PBM binding z-score": 0.652}
{"CONSTRUCT_SEQUENCE": "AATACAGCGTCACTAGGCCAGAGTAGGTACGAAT", "TARGET_OR_SYSTEM": "LXRb homodimer (NR concentration 270 nM)", "PBM binding z-score": -0.279}
{"CONSTRUCT_SEQUENCE": "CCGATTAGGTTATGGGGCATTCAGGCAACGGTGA", "TARGET_OR_SYSTEM": "LXRb homodimer (NR concentration 270 nM)", "PBM binding z-score": -0.609}
{"CONSTRUCT_SEQUENCE": "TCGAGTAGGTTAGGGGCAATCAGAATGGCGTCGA", "TARGET_OR_SYSTEM": "LXRb homodimer (NR concentration 270 nM)", "PBM binding z-score": -0.231}
{"CONSTRUCT_SEQUENCE": "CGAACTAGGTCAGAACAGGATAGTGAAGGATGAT", "TARGET_OR_SYSTEM": "LXRb homodimer (NR concentration 270 nM)", "PBM binding z-score": -0.465}
{"CONSTRUCT_SEQUENCE": "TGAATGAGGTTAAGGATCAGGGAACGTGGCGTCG", "TARGET_OR_SYSTEM": "LXRb homodimer (NR concentration 270 nM)", "PBM binding z-score": 0.386}
{"CONSTRUCT_SEQUENCE": "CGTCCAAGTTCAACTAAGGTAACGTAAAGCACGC", "TARGET_OR_SYSTEM": "LXRb homodimer (NR concentration 270 nM)", "PBM binding z-score": 0.515}
{"CONSTRUCT_SEQUENCE": "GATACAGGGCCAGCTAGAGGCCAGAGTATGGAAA", "TARGET_OR_SYSTEM": "LXRb homodimer (NR concentration 270 nM)", "PBM binding z-score": -1.43}
{"CONSTRUCT_SEQUENCE": "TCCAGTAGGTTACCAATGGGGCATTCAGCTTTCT", "TARGET_OR_SYSTEM": "LXRb homodimer (NR concentration 270 nM)", "PBM binding z-score": -0.862}
{"CONSTRUCT_SEQUENCE": "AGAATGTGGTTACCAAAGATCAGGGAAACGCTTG", "TARGET_OR_SYSTEM": "LXRb homodimer (NR concentration 270 nM)", "PBM binding z-score": -0.442}
{"CONSTRUCT_SEQUENCE": "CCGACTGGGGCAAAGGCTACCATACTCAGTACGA", "TARGET_OR_SYSTEM": "LXRb homodimer (NR concentration 270 nM)", "PBM binding z-score": -1.35}
{"CONSTRUCT_SEQUENCE": "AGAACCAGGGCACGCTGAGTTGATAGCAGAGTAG", "TARGET_OR_SYSTEM": "LXRb homodimer (NR concentration 270 nM)", "PBM binding z-score": -1.03}
{"CONSTRUCT_SEQUENCE": "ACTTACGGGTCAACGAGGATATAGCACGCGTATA", "TARGET_OR_SYSTEM": "LXRb homodimer (NR concentration 270 nM)", "PBM binding z-score": 0.828}
{"CONSTRUCT_SEQUENCE": "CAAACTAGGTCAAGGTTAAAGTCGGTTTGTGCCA", "TARGET_OR_SYSTEM": "LXRb homodimer (NR concentration 270 nM)", "PBM binding z-score": 0.57}
{"CONSTRUCT_SEQUENCE": "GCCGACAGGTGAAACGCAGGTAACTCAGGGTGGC", "TARGET_OR_SYSTEM": "LXRb homodimer (NR concentration 270 nM)", "PBM binding z-score": -1.11}
{"CONSTRUCT_SEQUENCE": "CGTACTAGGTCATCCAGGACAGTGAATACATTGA", "TARGET_OR_SYSTEM": "LXRb homodimer (NR concentration 270 nM)", "PBM binding z-score": 0.292}
{"CONSTRUCT_SEQUENCE": "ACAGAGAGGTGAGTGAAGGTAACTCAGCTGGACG", "TARGET_OR_SYSTEM": "LXRb homodimer (NR concentration 270 nM)", "PBM binding z-score": 0.454}
{"CONSTRUCT_SEQUENCE": "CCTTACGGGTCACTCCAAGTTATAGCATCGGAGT", "TARGET_OR_SYSTEM": "LXRb homodimer (NR concentration 270 nM)", "PBM binding z-score": 0.193}
{"CONSTRUCT_SEQUENCE": "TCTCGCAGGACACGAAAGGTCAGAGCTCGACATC", "TARGET_OR_SYSTEM": "LXRb homodimer (NR concentration 270 nM)", "PBM binding z-score": 0.477}
{"CONSTRUCT_SEQUENCE": "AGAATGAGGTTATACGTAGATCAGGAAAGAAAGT", "TARGET_OR_SYSTEM": "LXRb homodimer (NR concentration 270 nM)", "PBM binding z-score": 0.0606}
{"CONSTRUCT_SEQUENCE": "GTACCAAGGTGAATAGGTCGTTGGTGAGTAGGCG", "TARGET_OR_SYSTEM": "LXRb homodimer (NR concentration 270 nM)", "PBM binding z-score": -0.834}
{"CONSTRUCT_SEQUENCE": "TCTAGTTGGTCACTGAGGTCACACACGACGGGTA", "TARGET_OR_SYSTEM": "LXRb homodimer (NR concentration 270 nM)", "PBM binding z-score": 0.98}
{"CONSTRUCT_SEQUENCE": "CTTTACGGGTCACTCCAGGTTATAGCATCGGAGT", "TARGET_OR_SYSTEM": "LXRb homodimer (NR concentration 270 nM)", "PBM binding z-score": 1.09}
{"CONSTRUCT_SEQUENCE": "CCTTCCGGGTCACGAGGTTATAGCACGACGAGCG", "TARGET_OR_SYSTEM": "LXRb homodimer (NR concentration 270 nM)", "PBM binding z-score": 0.139}
{"CONSTRUCT_SEQUENCE": "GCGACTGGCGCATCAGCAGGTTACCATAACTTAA", "TARGET_OR_SYSTEM": "LXRb homodimer (NR concentration 270 nM)", "PBM binding z-score": -1.19}
